test system: A549 NSCLC; experiment: NCI tumour cell line growth inhibition, 48 h
// values below are reported TGI
Reply numerically in µM, unit not repeated.

Known results for molecules:
- CCCCCCCCCCCCNC(=S)OC: 35
- COCCOCOC(CCCCO)c1cc(C)c(O[Si](C)(C)C(C)(C)C)c(C)c1 (configuration not stated): 16.1

Would you kindly look at the next entry?
Summary: COc1cc2c(/C=C3/C(=O)Nc4cccc(Cl)c43)c(Cl)[nH]c2cc1C , A549 NSCLC, TGI = 6.23

* * *

test system: OVCAR-4 ovarian; assay: NCI tumour cell line growth inhibition, 48 h
// values below are reported TGI

* C=C1C(=O)O[C@H]2[C@H]1CC/C(CNC(=O)c1cc3ccccc3[nH]1)=C\CC[C@@]1(C)O[C@@H]21 | 5.53 µM
* O=C1c2c(F)c(F)c(F)c(F)c2C(=O)N1c1ccc(F)cc1F | 53.3 µM

Summary: C/C(=N\NC(N)=S)c1ccc2c(c1)Sc1ccccc1O2 , OVCAR-4 ovarian, TGI = 57.1 µM

Summary: O=C1c2ccccc2C(=O)c2c(/C=C\N3CCCCC3)ccnc21 , OVCAR-4 ovarian, TGI = 28.4 µM

Summary: c1ccc(Nc2ncc(-c3ccccc3)o2)cc1 , OVCAR-4 ovarian, TGI = > 25 µM

Sourced from PubChem BioAssay (NCI)
